Could you please report measured Semi-quantitative analysis of proteins binding to different plaque particles: Chl Large for the items listed next?
- System: High Density cholesterol (Chl Large) plaque particles
- Assay remarks: Mass spectroscopy proteomics, semi-quantitative binding affinity of serum proteins (plaqueproteome, Table 2)
- Set-up: species or system human
- Experimental conditions: higher number = stronger affinity
- Description: The goal was to isolate plaque particles synthesized in the bio-fluids in a relatively pure form to enable their subsequent use for identification of components that contribute to the plaque formation. […] All MS/MS samples were analyzed using Sequest (Thermo Fisher Scientific, San Jose, Calif., USA; version 1.0). […]
Returns: the value as a bare number; no unit string appended.

Query: For the molecule shown here, Apolipoprotein C-II (protein) TQQPQQDEMPSPTFLTQVKESLSSYWESAKTAAQNLYEKTYLPAVDEKLRDLYSKSTAAMSTYTGIFTDQVLSVLKGEE , give the reported Semi-quantitative analysis of proteins binding to different plaque particles: Chl Large.
Result: 0

Query: Another: Alpha-2-HS-glycoprotein (protein) chain 1: APHGPGLIYRQPNCDDPETEEAALVAIDYINQNLPWGYKHTLNQIDEVKVWPQQPSGELFEIEIDTLETTCHVLDPTPVARCSVRQLKEHAVEGDCDFQLLKLDGKFSVVYAKCDSSPDSAEDVRKVCQDCPLLAPLNDTRVVHAAKAALAAFNAQNNGSNFQLEEISRAQLVPLPPSTYVEFTVSGTDCVAKEATEAAKCNLLAEKQYGFCKATLSEKLGGAEVAVTCMVFQTQPVSSQPQPEGANEAVPTPVVDPDAPPSPPLGAPGLPPAGSPPDSHVL chain 2: TVVQPSVGAAAGPVVPPCPGRIRHFKV
Result: 9

Query: Another: Complement factor H-related protein 1 (protein) EATFCDFPKINHGILYDEEKYKPFSQVPTGEVFYYSCEYNFVSPSKSFWTRITCTEEGWSPTPKCLRLCFFPFVENGHSESSGQTHLEGDTVQIICNTGYRLQNNENNISCVERGWSTPPKCRSTDTSCVNPPTVQNAHILSRQMSKYPSGERVRYECRSPYEMFGDEEVMCLNGNWTEPPQCKDSTGKCGPPPPIDNGDITSFPLSVYAPASSVEYQCQNLYQLEGNKRITCRNGQWSEPPKCLHPCVISREIMENYNIALRWTAKQKLYLRTGESAEFVCKRGYRLSSRSHTLRTTCWDGKLEYPTCAKR
Result: 2

Query: Another: Histone H1.3 (protein) SETAPLAPTIPAPAEKTPVKKKAKKAGATAGKRKASGPPVSELITKAVAASKERSGVSLAALKKALAAAGYDVEKNNSRIKLGLKSLVSKGTLVQTKGTGASGSFKLNKKAASGEGKPKAKKAGAAKPRKPAGAAKKPKKVAGAATPKKSIKKTPKKVKKPATAAGTKKVAKSAKKVKTPQPKKAAKSPAKAKAPKPKAAKPKSGKPKVTKAKKAAPKKK
Result: 0

Query: Another: Ig lambda chain V-III region (protein) SELTQDPAVSVALGQTVRITCQGDSLRSYYASWYQQKPGQAPVLVIYGKNNRPSGIPDRFSGSSSGNTASLTITGAQAEDEADYYCNSRDSS
Result: 1
